- Measurement target: T1, cynomolgus monkey BCMA (cynomolgus monkey, UniProt A0A2K5UD97 1-53)
- T1 construct: Soluble analyte in SPR; construct not described; also called cyBCMA; Cyno BCMA
- T1 sequence (A0A2K5UD97 entry or part of it): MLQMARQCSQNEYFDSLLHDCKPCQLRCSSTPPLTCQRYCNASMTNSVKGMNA
- Assay name: SPR, IgG on chip, cyBCMA analyte
pKd: −log10 of the molar value.

- Binder: "A02_Rd4_6nM_C23 (antibody, V domains shown, IgG) VH: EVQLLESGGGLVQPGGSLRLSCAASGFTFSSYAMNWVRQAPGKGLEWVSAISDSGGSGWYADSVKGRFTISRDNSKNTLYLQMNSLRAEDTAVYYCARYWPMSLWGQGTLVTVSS VL: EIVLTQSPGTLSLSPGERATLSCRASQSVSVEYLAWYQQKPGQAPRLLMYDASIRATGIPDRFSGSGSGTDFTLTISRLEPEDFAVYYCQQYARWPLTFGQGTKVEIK"
  pKd: 9.80
- Binder: "COMBO_Rd4_6nM_C07 (antibody, V domains shown, IgG) VH: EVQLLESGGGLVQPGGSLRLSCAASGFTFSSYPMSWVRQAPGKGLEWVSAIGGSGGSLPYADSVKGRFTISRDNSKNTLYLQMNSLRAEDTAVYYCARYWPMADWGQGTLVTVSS VL: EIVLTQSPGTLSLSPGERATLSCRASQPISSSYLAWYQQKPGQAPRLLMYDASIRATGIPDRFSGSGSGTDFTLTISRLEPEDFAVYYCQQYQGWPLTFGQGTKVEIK"
  pKd: 9.63
- Binder: "P5A2_VHVL (antibody, V domains shown, IgG) VH: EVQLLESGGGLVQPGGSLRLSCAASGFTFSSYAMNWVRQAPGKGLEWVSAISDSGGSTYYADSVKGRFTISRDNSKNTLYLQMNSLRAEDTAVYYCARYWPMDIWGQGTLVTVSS VL: EIVLTQSPGTLSLSPGERATLSCRASQSVSSSYLAWYQQKPGQAPRLLMYDASIRATGIPDRFSGSGSGTDFTLTISRLEPEDFAVYYCQQYGSWPLTFGQGTKVEIK"
  pKd: 7.99
